For each of the compounds below, state its mortality at 50 µg/cm2.
System: beet armyworm (BAW; Spodoptera exigua: Lepidoptera)
Method Summary: 128-well diet tray assay on beet armyworm (BAW 50)
Format: in vivo
Assay Context: 144 h, 50 ug/cm^2 of test compound on diet, second instar BAW larvae, 25° C., six days, average of eight wells, read-out: BAW 50 (percent mortality)
Description: Bioassays on beet armyworm (BAW; Spodoptera exigua: Lepidoptera) were conducted using either a 96-well microtiter plate-based high throughput (HTS) bioassay or a 128-well diet tray assay. The HTS assay is a based on a modification of Lewer et al. J. Nat. Prod. […] Mortality was recorded at 6 days (d) post-treatment. […] The percent mortality was calculated from the average of the six replicates. […] Percent mortality was recorded for the larvae in each well; activity in the eight wells was then averaged. […]

Case CO[C@@H]1[C@@H](OC)[C@H](C)O[C@@H](OC2Cc3ccc(-c4ccnc(-c5ccccc5)n4)cc3C2)[C@@H]1OC (stereo partly shown) [Compound 7C] , beet armyworm (BAW; Spodoptera exigua: Lepidoptera), mortality at 50 µg/cm2 recorded as < 50%

Case COc1ccc(-c2nccc(-c3ccc4c(c3)CC(O[C@@H]3O[C@@H](C)[C@H](OC)[C@@H](OC)[C@H]3OC)C4)n2)cc1 (stereo partly shown) [Compound 5C] , beet armyworm (BAW; Spodoptera exigua: Lepidoptera), mortality at 50 µg/cm2 recorded as > 50%

Case CO[C@@H]1[C@@H](OC)[C@H](C)O[C@@H](OC2Cc3ccc(-c4ccn(-c5nnc(C(F)(F)F)s5)n4)cc3C2)[C@@H]1OC (stereo partly shown) [Compound 9C] , beet armyworm (BAW; Spodoptera exigua: Lepidoptera), mortality at 50 µg/cm2 recorded as > 50%

Case CO[C@@H]1[C@@H](OC)[C@H](C)O[C@@H](OC2Cc3ccc(-c4ccn(-c5ccc(OC(F)(F)C(F)(F)F)cc5)n4)cc3C2)[C@@H]1OC (stereo partly shown) [Compound 10C] , beet armyworm (BAW; Spodoptera exigua: Lepidoptera), mortality at 50 µg/cm2 recorded as > 50%

Case CO[C@@H]1[C@@H](OC)[C@H](C)O[C@@H](OC2Cc3ccc(-c4ccnc(-c5cccnc5)n4)cc3C2)[C@@H]1OC (stereo partly shown) [Compound 6C] , beet armyworm (BAW; Spodoptera exigua: Lepidoptera), mortality at 50 µg/cm2 recorded as < 50%

Case CO[C@@H]1[C@@H](OC)[C@H](C)O[C@@H](OC2Cc3ccc(-c4ccnc(-c5cccc(C(F)(F)F)c5)n4)cc3C2)[C@@H]1OC (stereo partly shown) [Compound 3C] , beet armyworm (BAW; Spodoptera exigua: Lepidoptera), mortality at 50 µg/cm2 recorded as > 50%

Case CO[C@@H]1[C@@H](OC)[C@H](C)O[C@@H](OC2Cc3ccc(-c4ccnc(-c5ccc(Cl)cc5)n4)cc3C2)[C@@H]1OC (stereo partly shown) [Compound 1C] , beet armyworm (BAW; Spodoptera exigua: Lepidoptera), mortality at 50 µg/cm2 recorded as > 50%

Case CO[C@@H]1[C@@H](OC)[C@H](C)O[C@@H](OC2Cc3ccc(-c4ccnc(-c5ccc(Cl)cc5Cl)n4)cc3C2)[C@@H]1OC (stereo partly shown) [Compound 2C] , beet armyworm (BAW; Spodoptera exigua: Lepidoptera), mortality at 50 µg/cm2 recorded as < 50%

Case CO[C@@H]1[C@@H](OC)[C@H](C)O[C@@H](OC2Cc3ccc(-c4ccnc(-c5ccc(C(F)(F)F)cc5)n4)cc3C2)[C@@H]1OC (stereo partly shown) [Compound 4C] , beet armyworm (BAW; Spodoptera exigua: Lepidoptera), mortality at 50 µg/cm2 recorded as > 50%

Case CO[C@@H]1[C@@H](OC)[C@H](C)O[C@@H](OC2Cc3ccc(-c4ccn(-c5ccc(C(F)(F)F)cn5)n4)cc3C2)[C@@H]1OC (stereo partly shown) [Compound 8C] , beet armyworm (BAW; Spodoptera exigua: Lepidoptera), mortality at 50 µg/cm2 recorded as > 50%
